# tested system: human FLAP (Homo sapiens (Human))
# Sequence (P20292 whole entry): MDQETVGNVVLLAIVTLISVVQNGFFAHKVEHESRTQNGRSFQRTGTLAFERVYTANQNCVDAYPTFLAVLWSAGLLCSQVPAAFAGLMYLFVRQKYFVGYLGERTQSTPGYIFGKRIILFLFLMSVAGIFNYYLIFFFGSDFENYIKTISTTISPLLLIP
# assay name: FLAP binding assay (HTRF format)
# condition info: Table 6 (additional runs), human FLAP wild type
readout: pKi
Bear in mind: pKi is minus log10 of a mol/L concentration; give just that figure.

These recorded examples may help you get a feel for the data.
                                chem_smiles                      tested_system  recorded_number
0  Nc1cnc(-c2ccc(-c3ccccc3S(=O)(=O)Nc3ccccc3)cc2F)cn1  human FLAP (Homo sapiens (Human))             9.05
1  Nc1ncc(-c2ccc(-c3ccccc3S(=O)(=O)N[C@H]3CCNC3=O)cc2F)cn1  human FLAP (Homo sapiens (Human))             6.90
2  Nc1cnc(-c2ccc(-c3ccccc3S(=O)(=O)NC3CCCCC3)cc2F)cn1  human FLAP (Homo sapiens (Human))             8.96
3  Nc1cnc(-c2ccc(-c3ccccc3S(=O)(=O)N3CCCCCC3)cc2F)cn1  human FLAP (Homo sapiens (Human))             8.48
4  CC(C)(C)NS(=O)(=O)c1ccccc1-c1ccc(-c2cnc(N)cn2)c(F)c1  human FLAP (Homo sapiens (Human))             9.40

Prompt: # returns recorded pKi (system: human FLAP (Homo sapiens (Human))) for C[C@@H](CO)NS(=O)(=O)c1ccccc1-c1ccc(-c2cnc3[nH]ccc3c2)c(F)c1
Completion: 8.92

Prompt: State its pKi on human FLAP (Homo sapiens (Human)): Nc1ncc(-c2ccc(-c3ccccc3S(=O)(=O)N3CC4(COC4)C3)cc2F)cn1
Completion: 6.49

Prompt: Which pKi is reported with human FLAP (Homo sapiens (Human)) for this entry: CCNS(=O)(=O)c1cc(C(F)(F)F)ccc1-c1ccc(-c2cnc(N)nc2)c(F)c1 ?
Completion: 8.74

###

# tested system: human FLAP (Homo sapiens (Human))
# assay name: FLAP binding assay (HTRF format)
# condition info: Table 6 (additional runs), human FLAP wild type
Each item that follows carries a reported pKi.
The meaning of pKi here: minus log10 of the concentration in molar units.

Answered cases to consult:
>>> print(df.to_string())
                                chem_smiles  readout  recorded_number
0  O=S(=O)(c1ccccc1-c1ccc(-c2cnc3c(c2)OCCN3)c(F)c1)N1CCCCC1      pKi             8.74
1  CC(C)N(CCO)S(=O)(=O)c1ccccc1-c1ccc(-c2cnc(N)cn2)c(F)c1      pKi             9.15
2  Nc1cnc(-c2ccc(-c3ccccc3SCCNC(=O)c3ccccc3)cc2F)cn1      pKi             8.35

Prompt: Suppose we examine the molecule CN(C)S(=O)(=O)c1ccccc1-c1ccc(-c2cnc3[nH]ccc3n2)c(F)c1 ; what pKi value has been reported?
Completion: 8.72

Prompt: I'd like to know its pKi. The molecule in question is CN1CCCC[C@@H](NS(=O)(=O)c2ccccc2-c2ccc(-c3cnc(N)cn3)c(F)c2)C1=O
Completion: 7.20

Prompt: // query pKi value for entry CC[C@@H](CO)NS(=O)(=O)c1ccccc1-c1ccc(-c2cnc(N)cn2)c(F)c1
Completion: 8.60

Prompt: # lookup: pKi of CCNS(=O)(=O)c1cc(C(F)(F)F)ccc1-c1ccc(-c2cnc(N)cn2)c(F)c1
Completion: 9.30

Prompt: Item under review: Nc1cnc(-c2ccc(-c3ccccc3S(=O)(=O)Nc3ccc(C(F)(F)F)nc3)cc2F)cn1 . Reported pKi?
Completion: 9.30
